Listed next: entries and their corresponding APOE RNA (% control) Spinal Cord.
Tested on: human APOE RNA
Assay: Activity in APOE C57BL/6NTac-Apoeem7250 knock-in mice, single ICV bolus, 4 weeks (Example 10)
Type: in vivo
Conditions: spinal cord; single ICV bolus 300 μg; 4 weeks post treatment; normalized to mouse Ppia
Strand notation (5' to 3'): a small letter for the sugar, then the base; units joined by * are phosphorothioate-linked, units joined directly phosphodiester-linked; [ ] holds rarer units or linkages, { } end groups; capitals alone tell only the bases. [ms] = mesyl phosphoramidate linkage; e = 2'-O-(2-methoxyethyl) (MOE); k = constrained ethyl (cEt); [5mC] = 5-methylcytosine; d = 2'-deoxy (DNA)
Number only, in % control; omit the unit.

# APOE RNA (% control) Spinal Cord (substance: 1785598: modified oligonucleotide complementary to human APOE RNA (k[5mC]*kT*kT*dG[ms]dG[ms]dT[ms]dG[ms]dA[ms]dA[ms]dT*d[5mC]*dT*dT*dT*dA*dT[ms]kT*kA*dA[ms]kA; antisense) [compound 1785598] ) is 40

Next:
# APOE RNA (% control) Spinal Cord (substance: 1785588 (k[5mC]*kT*kT*dG[ms]dG[ms]dT[ms]dG*dA*dA[ms]dT[ms]d[5mC]*dT*dT*dT*dA*dT*kT*kA*dA[ms]kA; antisense) [Compound 1785588] ) is 29

# APOE RNA (% control) Spinal Cord (substance: 1778154: modified oligonucleotide complementary to human APOE RNA (e[5mC]*eT*eTeGeGeT*dG[ms]dA[ms]dA*dT*d[5mC]*dT*dT*dT*dA*dT*kTkAeA*eA; antisense) [compound 1778154] ) is 44

====

Tested on: human APOE RNA
Experiment: Activity in APOE C57BL/6NTac-Apoeem7250 knock-in mice, single ICV bolus, 8 weeks (Example 11)
Assay type: in vivo
Conditions: APOE knock-in mouse model, 8 weeks post administration, assay of Example 11
Strand notation (5' to 3'): a small letter for the sugar, then the base; units joined by * are phosphorothioate-linked, units joined directly phosphodiester-linked; [ ] holds rarer units or linkages, { } end groups; capitals alone tell only the bases. [ms] = mesyl phosphoramidate linkage; e = 2'-O-(2-methoxyethyl) (MOE); k = constrained ethyl (cEt); [5mC] = 5-methylcytosine; d = 2'-deoxy (DNA)
Listed next: entries and their corresponding reduction of human APOE RNA in the cortex.
Number only, in %; omit the unit.

# reduction of human APOE RNA in the cortex (substance: Compound No. 1517578: comparator of WO 2022/066956; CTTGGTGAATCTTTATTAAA, sugar eeeeeddddddddddeeeee, linkages sooosssssssssssooss (MOE gapmer, mixed PS/PO linkages, chemistry not fully specified) [reference compound] ) is 34

# reduction of human APOE RNA in the cortex (substance: Compound No. 1517853: comparator of WO 2022/066956; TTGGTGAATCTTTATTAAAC, sugar eeeeeddddddddddeeeee, linkages sooosssssssssssooss (MOE gapmer, mixed PS/PO linkages, chemistry not fully specified) [reference compound] ) is 33

Next:
# reduction of human APOE RNA in the cortex (substance: Aes^mCeoTeoTesGesGksTdsGdzAdzAdzTds^mCdsTdsTdsTdsAdzTksTksAesAe (eA*e[5mC]eTeT*eG*kG*dT*dG[ms]dA[ms]dA[ms]dT*d[5mC]*dT*dT*dT*dA[ms]kT*kT*eA*eA) [Compound No. 1757576] ) is 79

# reduction of human APOE RNA in the cortex (substance: ^mCksTksTksGdzGdzTdzGdzAdzAdzTds^mCdsTdsTdsTdsAdsTdsTksAksAdzAk (antisense k[5mC]*kT*kT*dG[ms]dG[ms]dT[ms]dG[ms]dA[ms]dA[ms]dT*d[5mC]*dT*dT*dT*dA*dT*kT*kA*dA[ms]kA) [Compound No. 1785602] ) is 73

# reduction of human APOE RNA in the cortex (substance: Aks^mCeoTeoTesGesGksTdsGdzAdzAdzTds^mCdsTdsTdsTdsAdzTksTksAesAe (kA*e[5mC]eTeT*eG*kG*dT*dG[ms]dA[ms]dA[ms]dT*d[5mC]*dT*dT*dT*dA[ms]kT*kT*eA*eA) [Compound No. 1809635] ) is 74

# reduction of human APOE RNA in the cortex (substance: Compound No. 1517891: comparator of WO 2022/066956; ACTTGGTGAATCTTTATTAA, sugar eeeeeddddddddddeeeee, linkages sooosssssssssssooss (MOE gapmer, mixed PS/PO linkages, chemistry not fully specified) [reference compound] ) is 44

# reduction of human APOE RNA in the cortex (substance: TezTeoGeoGksTdsGdzAdzAdzTds^mCdsTdsTdsTdsAdzTksTksAesAesAes^mCe (antisense eT[ms]eTeGkG*dT*dG[ms]dA[ms]dA[ms]dT*d[5mC]*dT*dT*dT*dA[ms]kT*kT*eA*eA*eA*e[5mC]) [Compound No. 1809814] ) is 64

====

Listed next: entries and their corresponding APOE RNA (% control) Spinal Cord.
System: human APOE RNA
Assay: Activity in APOE 1549 knock-in mice, single ICV bolus, 4 weeks (Example 8)
Type: in vivo
Details: n = 2, single ICV bolus of 300 μg, four weeks post treatment, spinal cord, Table 18
Strand notation (5' to 3'): a small letter for the sugar, then the base; units joined by * are phosphorothioate-linked, units joined directly phosphodiester-linked; [ ] holds rarer units or linkages, { } end groups; capitals alone tell only the bases. [ms] = mesyl phosphoramidate linkage; e = 2'-O-(2-methoxyethyl) (MOE); [5mC] = 5-methylcytosine; d = 2'-deoxy (DNA)
Number only, in % control; omit the unit.

# APOE RNA (% control) Spinal Cord (substance: 1736524: 6-10-4 MOE gapmer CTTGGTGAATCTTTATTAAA, linkages sssooozzssssssssoss (e[5mC]*eT*eT*eGeGeTdG[ms]dA[ms]dA*dT*d[5mC]*dT*dT*dT*dA*dT*eTeA*eA*eA) [compound 1736524] ) is 31

# APOE RNA (% control) Spinal Cord (substance: 1736520: 6-10-4 MOE gapmer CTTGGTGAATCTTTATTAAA, linkages sossoszzzssssssssss (e[5mC]*eTeT*eG*eGeT*dG[ms]dA[ms]dA[ms]dT*d[5mC]*dT*dT*dT*dA*dT*eT*eA*eA*eA) [compound 1736520] ) is 32

# APOE RNA (% control) Spinal Cord (substance: 1736523: 6-10-4 MOE gapmer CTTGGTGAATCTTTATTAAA, linkages ssoooszzssssssssoss (e[5mC]*eT*eTeGeGeT*dG[ms]dA[ms]dA*dT*d[5mC]*dT*dT*dT*dA*dT*eTeA*eA*eA) [compound 1736523] ) is 34

# APOE RNA (% control) Spinal Cord (substance: 1736527: 6-10-4 MOE gapmer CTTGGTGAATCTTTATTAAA, linkages sssooozzsssssssssss (e[5mC]*eT*eT*eGeGeTdG[ms]dA[ms]dA*dT*d[5mC]*dT*dT*dT*dA*dT*eT*eA*eA*eA) [compound 1736527] ) is 54

# APOE RNA (% control) Spinal Cord (substance: 1736525: 6-10-4 MOE gapmer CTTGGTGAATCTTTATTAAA, linkages sooosszzsssssssssss (e[5mC]*eTeTeGeG*eT*dG[ms]dA[ms]dA*dT*d[5mC]*dT*dT*dT*dA*dT*eT*eA*eA*eA) [compound 1736525] ) is 41

Next:
# APOE RNA (% control) Spinal Cord (substance: 1736522: 6-10-4 MOE gapmer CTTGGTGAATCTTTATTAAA, linkages sooosszzssssssssoss (e[5mC]*eTeTeGeG*eT*dG[ms]dA[ms]dA*dT*d[5mC]*dT*dT*dT*dA*dT*eTeA*eA*eA) [compound 1736522] ) is 39

# APOE RNA (% control) Spinal Cord (substance: 1736526: 6-10-4 MOE gapmer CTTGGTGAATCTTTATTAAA, linkages ssoooszzsssssssssss (e[5mC]*eT*eTeGeGeT*dG[ms]dA[ms]dA*dT*d[5mC]*dT*dT*dT*dA*dT*eT*eA*eA*eA) [compound 1736526] ) is 42

# APOE RNA (% control) Spinal Cord (substance: 1736521: 6-10-4 MOE gapmer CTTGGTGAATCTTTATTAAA, linkages sosssszzzsssssssoss (e[5mC]*eTeT*eG*eG*eT*dG[ms]dA[ms]dA[ms]dT*d[5mC]*dT*dT*dT*dA*dT*eTeA*eA*eA) [compound 1736521] ) is 50

====

Listed next: entries and their corresponding APOE RNA (% UTC) 512 nM.
Test system: human APOE RNA
Assay: Dose-dependent inhibition of human APOE RNA in HepG2 cells, electroporation, 50,000 cells per well, RT-PCR normalized to GAPDH (Example 4, Tables 8-10)
Format: cell-based
Details: HepG2 cells, electroporation, 24-hour treatment, 512 nM, Table 8
Strand notation (5' to 3'): a small letter for the sugar, then the base; units joined by * are phosphorothioate-linked, units joined directly phosphodiester-linked; [ ] holds rarer units or linkages, { } end groups; capitals alone tell only the bases. [ms] = mesyl phosphoramidate linkage; e = 2'-O-(2-methoxyethyl) (MOE); k = constrained ethyl (cEt); [5mC] = 5-methylcytosine; d = 2'-deoxy (DNA)
Remember to put the unit after the number in your answer.

# APOE RNA (% UTC) 512 nM (substance: 1778114: modified oligonucleotide complementary to human APOE RNA (eA*e[5mC]eTeTkG*kG*dT*dG[ms]dA[ms]dA*dT*d[5mC]*dT*dT*dT*dA[ms]eTeT*eA*eA; antisense) [compound 1778114] ) is 45 % UTC

# next substance below
# APOE RNA (% UTC) 512 nM (substance: Aes^mCeoTeoTesGesGksTdsGdzAdzAdzTds^mCdsTdsTdsTdsAdzTksTksAesAe (eA*e[5mC]eTeT*eG*kG*dT*dG[ms]dA[ms]dA[ms]dT*d[5mC]*dT*dT*dT*dA[ms]kT*kT*eA*eA) [Compound No. 1757576] ) is 23 % UTC
